# experimental-target: N-acylamino acid racemase (NAAAR) (Deinococcus radiodurans, UniProt Q9RYA6, A252S/A94S/G148D/K158R/P315S)
# Sequence (Q9RYA6 whole entry A94S/G148D/K158R/A252S/P315S): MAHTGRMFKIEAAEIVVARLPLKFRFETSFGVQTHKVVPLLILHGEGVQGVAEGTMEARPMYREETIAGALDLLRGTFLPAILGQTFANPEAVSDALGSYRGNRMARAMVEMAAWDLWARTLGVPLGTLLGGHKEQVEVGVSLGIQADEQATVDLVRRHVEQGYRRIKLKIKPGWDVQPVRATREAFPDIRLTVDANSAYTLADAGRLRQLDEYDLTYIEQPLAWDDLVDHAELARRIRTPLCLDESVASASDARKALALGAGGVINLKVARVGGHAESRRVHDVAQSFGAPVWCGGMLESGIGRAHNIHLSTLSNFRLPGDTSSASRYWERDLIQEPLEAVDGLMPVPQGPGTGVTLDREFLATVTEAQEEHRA
# method-description: Substrate selectivity / enzymetic activity of NAAAR by Chiral-HPLC
# Format: biochemical, Deinococcus radiodurans NCHU1003
# stated-conditions: percentage of the enzyme activity using N-acetyl-D-Met as substrate
Could you please mark true (1) for values of Relative activity below 20% and false (0) for values at or above it?

Some solved entries appear below for comparison.
>>> label_class("O=C(CCl)N[C@@H](Cc1ccccc1)C(=O)O")
"true (1)"
>>> label_class("CSCC[C@@H](NC(C)=O)C(=O)O")
"false (0)"
>>> label_class("CC(=O)N[C@H](Cc1ccccc1)C(=O)O")
"false (0)"

INPUT: Determine if "NC(=O)N[C@@H](CCc1ccccc1)C(=O)O" shows Relative activity strictly lower than 20%.
OUTPUT: false (0)

INPUT: Same lookup for "CC(=O)N[C@@H](CCC(N)=O)C(=O)O" , please.
OUTPUT: true (1)

INPUT: Same lookup for "CC(=O)N[C@H](CCc1ccccc1)C(=O)O" , please.
OUTPUT: false (0)

INPUT: Same lookup for "CC(=O)N[C@@H](CC(C)C)C(=O)O" , please.
OUTPUT: true (1)

INPUT: Same lookup for "CC(=O)N[C@@H](CCc1ccccc1)C(=O)O" , please.
OUTPUT: false (0)

INPUT: Same lookup for "CC(=O)N[C@@H](Cc1ccccc1)C(=O)O" , please.
OUTPUT: false (0)

INPUT: Same lookup for "CSCC[C@H](NC(C)=O)C(=O)O" , please.
OUTPUT: false (0)

INPUT: Same lookup for "CC(=O)N[C@@H](Cc1c[nH]c2ccccc12)C(=O)O" , please.
OUTPUT: true (1)
